molecular target: UniProtKB Q16790
ENDPOINT_NAME: Ki (nM)
Numbers only, in nM.

Value sought: Ki, system UniProtKB Q16790, item `NS(=O)(=O)c1ccc(CCNC(=O)CCCCCNc2ccn(O)c(=O)n2)cc1` . Result: 4.1
